system_under_test: human TLR9 (Homo sapiens (Human), UniProt Q9NR96)
Sequence (Q9NR96 26-1032): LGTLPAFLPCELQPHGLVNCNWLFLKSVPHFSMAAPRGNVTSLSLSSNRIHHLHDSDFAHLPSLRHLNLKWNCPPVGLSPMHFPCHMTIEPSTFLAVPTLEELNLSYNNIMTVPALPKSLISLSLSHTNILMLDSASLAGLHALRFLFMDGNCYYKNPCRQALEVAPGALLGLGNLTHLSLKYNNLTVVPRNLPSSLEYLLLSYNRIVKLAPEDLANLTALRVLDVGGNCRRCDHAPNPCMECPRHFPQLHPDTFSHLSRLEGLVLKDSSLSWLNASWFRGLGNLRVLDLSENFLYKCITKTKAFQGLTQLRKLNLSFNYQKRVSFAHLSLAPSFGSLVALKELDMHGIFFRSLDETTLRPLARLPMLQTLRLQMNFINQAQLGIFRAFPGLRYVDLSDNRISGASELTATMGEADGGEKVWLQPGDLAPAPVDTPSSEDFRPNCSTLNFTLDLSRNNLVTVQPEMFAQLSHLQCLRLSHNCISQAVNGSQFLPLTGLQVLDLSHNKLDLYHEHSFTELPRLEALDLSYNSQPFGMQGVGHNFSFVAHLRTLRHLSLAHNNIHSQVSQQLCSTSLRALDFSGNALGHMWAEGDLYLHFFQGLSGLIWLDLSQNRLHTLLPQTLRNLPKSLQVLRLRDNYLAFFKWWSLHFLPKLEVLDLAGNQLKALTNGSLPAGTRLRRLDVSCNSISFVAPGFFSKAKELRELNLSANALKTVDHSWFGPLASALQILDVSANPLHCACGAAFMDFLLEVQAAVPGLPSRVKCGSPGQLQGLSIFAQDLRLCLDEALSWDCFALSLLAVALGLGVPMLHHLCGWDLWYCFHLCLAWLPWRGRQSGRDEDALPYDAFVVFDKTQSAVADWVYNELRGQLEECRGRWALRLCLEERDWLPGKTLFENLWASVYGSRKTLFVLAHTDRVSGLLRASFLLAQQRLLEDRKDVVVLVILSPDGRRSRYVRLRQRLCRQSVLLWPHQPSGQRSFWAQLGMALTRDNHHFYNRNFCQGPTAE
test_details: TLR9 inhibition reporter assay (HEK-Blue SEAP);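 note: SEAP driven by an IFN-β minimal promoter with NF-κB and AP-1 sites, read after 22 h, compounds dosed 0.05 nM–50 µM, inhibition scaled between agonist plus DMSO and reference-inhibitor wells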
measurement_context: read-out: TLR9 IC50; HEK-Blue cells overexpressing human TLR9, ODN2006 5 nM stimulation, SEAP reporter
Returns: string. Value is 1 if measured IC50 is below 2000 nM, and 0 if it is greater than or equal to it.

INSERT INTO results (molecule, system_under_test, label_value) VALUES
  ('COc1cc(-c2[nH]c3ccc(C4CCC(N(C)CCC#N)CC4)nc3c2C(C)C)cn2ncnc12 (stereo not drawn) [Example 166]', 'human TLR9 (Homo sapiens (Human), UniProt Q9NR96)', 0),
  ('Cc1c(-c2[nH]c3ccc(N4CC5(CCN(C(C)C)CC5)C4)nc3c2C(C)C)cn2ncnc2c1C', 'human TLR9 (Homo sapiens (Human), UniProt Q9NR96)', 1),
  ('Cc1c(-c2[nH]c3ccc(N4CCN(C(=O)CN5CCOCC5)CC4)nc3c2C(C)C)cn2ncnc2c1C', 'human TLR9 (Homo sapiens (Human), UniProt Q9NR96)', 0),
  ('COc1cc(-c2[nH]c3ccc(C4CCC(N(C)CCS(C)(=O)=O)CC4)nc3c2C(C)C)cn2ncnc12 (stereo not drawn) [Example 242]', 'human TLR9 (Homo sapiens (Human), UniProt Q9NR96)', 0),
  ('Cc1cc(-c2[nH]c3ccc(C4CCC(NC5COC5)CC4)nc3c2C(C)C)cc(C)n1 (stereo not drawn) [Example 282]', 'human TLR9 (Homo sapiens (Human), UniProt Q9NR96)', 1),
  ('CCn1cc(-c2[nH]c3ccc(C4CCC(N5CC6(COC6)C5)CC4)nc3c2C(C)C)c2cccnc21 (stereo not drawn) [Example 294]', 'human TLR9 (Homo sapiens (Human), UniProt Q9NR96)', 0),
  ('CC(C)c1c(-c2cn(C)c3ncccc23)[nH]c2ccc(C3CCC(NC4COC4)CC3)nc12 (stereo not drawn) [Example 185]', 'human TLR9 (Homo sapiens (Human), UniProt Q9NR96)', 0),
  ('CC(C)c1c(-c2cn(C)c3ncccc23)[nH]c2ccc(C3CCC(N4CC5(C4)CS(=O)(=O)C5)CC3)nc12 (stereo not drawn) [Example 255]', 'human TLR9 (Homo sapiens (Human), UniProt Q9NR96)', 1),
  ('Cc1c(-c2[nH]c3ccc(N4CCN(C(=O)CNC5CCC5)CC4)nc3c2C(C)C)cn2ncnc2c1C', 'human TLR9 (Homo sapiens (Human), UniProt Q9NR96)', 0),
  ('CC(C)c1c(-c2cc(CO)c3ncnn3c2)[nH]c2ccc(C3CCC(NCc4c[nH]nn4)CC3)nc12 (stereo not drawn) [Example 218]', 'human TLR9 (Homo sapiens (Human), UniProt Q9NR96)', 1),
  ('CC(C)c1c(-c2cn(C)c3ncccc23)[nH]c2ccc(C3CCC(NCC(C)(C)S(C)(=O)=O)CC3)nc12 (stereo not drawn) [Example 285]', 'human TLR9 (Homo sapiens (Human), UniProt Q9NR96)', 0),
  ('COc1cc(-c2[nH]c3ccc(C4CCC(N5CC6(C5)CS(=O)(=O)C6)CC4)nc3c2C(C)C)cn2ncnc12 (stereo not drawn) [Example 248]', 'human TLR9 (Homo sapiens (Human), UniProt Q9NR96)', 1),
  ('CCn1cc(-c2[nH]c3ccc(C4CCC(O)CC4)nc3c2C(C)C)c2cccnc21 (stereo not drawn)', 'human TLR9 (Homo sapiens (Human), UniProt Q9NR96)', 0),
  ('COc1cc(-c2[nH]c3ccc(C4CCC(N(C)CCS(C)(=O)=O)CC4)nc3c2C(C)C)cn2ncnc12 (stereo not drawn) [Example 241]', 'human TLR9 (Homo sapiens (Human), UniProt Q9NR96)', 1),
  ('CC(C)c1c(-c2cn(C)c3ncncc23)[nH]c2ccc(N3CCNCC3)nc12', 'human TLR9 (Homo sapiens (Human), UniProt Q9NR96)', 0);
